The origin of these recorded values is paper PMC4712559.

Exercise: state measured IC50 for each of the molecules provided.
Biological target: Angiotensin converting enzyme from rabbit lung (Oryctolagus cuniculus, UniProt P12822)
Sequence (P12822 34-1310): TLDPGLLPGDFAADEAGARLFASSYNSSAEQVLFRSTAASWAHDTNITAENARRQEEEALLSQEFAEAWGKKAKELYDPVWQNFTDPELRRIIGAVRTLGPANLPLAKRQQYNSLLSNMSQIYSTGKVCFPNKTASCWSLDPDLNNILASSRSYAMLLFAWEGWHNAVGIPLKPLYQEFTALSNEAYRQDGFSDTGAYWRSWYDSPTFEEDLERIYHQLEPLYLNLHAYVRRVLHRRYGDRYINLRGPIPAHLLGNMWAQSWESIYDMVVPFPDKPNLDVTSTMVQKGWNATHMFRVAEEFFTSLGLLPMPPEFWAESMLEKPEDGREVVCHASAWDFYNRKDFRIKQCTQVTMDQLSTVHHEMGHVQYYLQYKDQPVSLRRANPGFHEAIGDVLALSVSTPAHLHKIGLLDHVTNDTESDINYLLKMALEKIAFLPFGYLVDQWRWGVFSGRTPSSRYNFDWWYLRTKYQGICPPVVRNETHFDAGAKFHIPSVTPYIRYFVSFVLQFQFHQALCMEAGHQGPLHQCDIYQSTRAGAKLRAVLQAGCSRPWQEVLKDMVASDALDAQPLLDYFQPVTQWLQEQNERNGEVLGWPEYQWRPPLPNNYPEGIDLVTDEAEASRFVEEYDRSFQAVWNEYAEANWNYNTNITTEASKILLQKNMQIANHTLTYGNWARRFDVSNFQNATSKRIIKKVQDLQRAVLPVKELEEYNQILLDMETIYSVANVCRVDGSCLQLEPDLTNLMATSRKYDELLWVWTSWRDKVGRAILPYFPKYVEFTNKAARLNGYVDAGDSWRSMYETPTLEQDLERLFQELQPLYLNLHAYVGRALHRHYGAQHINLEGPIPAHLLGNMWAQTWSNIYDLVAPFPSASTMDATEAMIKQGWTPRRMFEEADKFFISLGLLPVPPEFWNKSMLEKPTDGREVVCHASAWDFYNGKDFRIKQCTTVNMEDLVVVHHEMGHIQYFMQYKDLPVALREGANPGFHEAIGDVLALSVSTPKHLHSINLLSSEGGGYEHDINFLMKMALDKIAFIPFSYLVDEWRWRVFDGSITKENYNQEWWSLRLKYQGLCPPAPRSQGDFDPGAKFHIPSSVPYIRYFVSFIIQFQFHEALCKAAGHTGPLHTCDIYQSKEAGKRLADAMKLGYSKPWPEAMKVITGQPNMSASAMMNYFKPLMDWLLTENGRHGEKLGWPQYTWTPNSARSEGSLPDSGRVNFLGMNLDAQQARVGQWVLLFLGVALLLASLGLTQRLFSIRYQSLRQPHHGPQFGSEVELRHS
Where a SMILES comes first, the peptide text is derived from it.
One number for each entry, in nM.

Examples with answers:
>>> measured_result("CC[C@H](C)[C@H](NC(=O)[C@H](CCC(N)=O)NC(=O)[C@@H]1CCCN1C(=O)[C@H](CCCNC(=N)N)NC(=O)[C@@H]1CCCN1C(=O)[C@H](Cc1c[nH]c2ccccc12)NC(=O)[C@H](CC(C)C)NC(=O)[C@@H]1CCC(=O)N1)C(=O)N1CCC[C@H]1C(=O)N1CCC[C@H]1C(=O)O [Inhibitor 1 (P6)] (HELM PEPTIDE1{[Glp].L.W.P.R.P.Q.I.P.P}$$$$V2.0)")
640
>>> measured_result("C[C@H](NC(=O)[C@H](Cc1c[nH]c2ccccc12)NC(=O)[C@H](CCC(N)=O)NC(=O)[C@@H]1CCC(=O)N1)C(=O)N[C@@H](CCC(N)=O)C(=O)NCC(=O)N[C@@H](CCCNC(=N)N)C(=O)N[C@@H](C)C(=O)N1CCC[C@H]1C(=O)N[C@@H](Cc1c[nH]cn1)C(=O)N1CCC[C@H]1C(=O)N1CCC[C@H]1C(=O)O [Inhibitor 2 (P7)] (HELM PEPTIDE1{[Glp].Q.W.A.Q.G.R.A.P.H.P.P}$$$$V2.0)")
3630

For each of the molecules below, state IC50.
1. CC[C@H](C)[C@H](NC(=O)[C@H](C)NC(=O)[C@H](CCC(=O)O)NC(=O)[C@H](CC(N)=O)NC(=O)CNC(=O)[C@@H]1CCCN1C(=O)[C@H](C)NC(=O)[C@H](CO)NC(=O)[C@@H]1CCC(=O)N1)C(=O)N1CCC[C@H]1C(=O)N1CCC[C@H]1C(=O)O [Inhibitor 3 (P5)] (HELM PEPTIDE1{[Glp].S.A.P.G.N.E.A.I.P.P}$$$$V2.0)
2. CC[C@H](C)[C@H](NC(=O)[C@H](CCC(N)=O)NC(=O)[C@@H]1CCCN1C(=O)[C@H](Cc1c[nH]cn1)NC(=O)[C@@H]1CCCN1C(=O)[C@H](Cc1c[nH]c2ccccc12)NC(=O)[C@H](CC(N)=O)NC(=O)[C@@H]1CCC(=O)N1)C(=O)N1CCC[C@H]1C(=O)N1CCC[C@H]1C(=O)O [Inhibitor 4 (P3)] (HELM PEPTIDE1{[Glp].N.W.P.H.P.Q.I.P.P}$$$$V2.0)

1: 30000; 2: 760
